Reference source: paper PMC9230201

Assay: Urinary excretion of phenolic metabolites after intake of the GCPE nutraceutical
Conditions: week 8, interval 6–9 h
Tick fulfilled if Amount excreted in urine, 6-9 h is 1 µmol or greater. Tick not fulfilled if Amount excreted in urine, 6-9 h is less than 1 µmol.

{"columns": ["compound", "category"],
 "data": [
  ["COc1ccc(C=CC(=O)O)cc1O[C@@H]1O[C@H](C(=O)O)[C@@H](O)[C@H](O)[C@H]1O [iFA-3′-glucuronide, 4′-Methoxycinnamic acid-3′-glucuronide]", "fulfilled"],
  ["COc1ccc(CCC(=O)O)cc1O[C@@H]1O[C@H](C(=O)O)[C@@H](O)[C@H](O)[C@H]1O [DHiFA-3′-glucuronide]", "fulfilled"],
  ["COc1ccc(/C=C/C(=O)NCC(=O)O)cc1O [IsoFeruloylglicine]", "not fulfilled"],
  ["O=C(O)c1ccc(O)cc1 [4-Hydroxybenzoic acid]", "not fulfilled"],
  ["O=C(CCc1ccc(O)c(O)c1)OC1CC(O)(C(=O)O)CC(O)C1O (stereo not shown) [5-Dihydrocaffeoylquinic acid]", "not fulfilled"],
  ["O=C(O)CCc1ccc(OS(=O)(=O)O)cc1 [DHCoA-4′-sulfate, 3-(Phenyl)propanoic acid-4′-sulfate]", "fulfilled"]
]}
